Known GI50 of a selection of compounds
System: SR
measurement description: NCI tumour cell line growth inhibition, 48 h
The source made the active and inactive calls. Cut-off read from the data, not from the text of the source: active = GI50 up to about 1.1 µM and inactive = higher.
measurement label: GI50

>>> experimental_result("[N-]=[N+]=C1C(=O)C2CC3CC1CC2C3 (stereo unspecified)")
"> 100 µM (inactive)"
>>> experimental_result("CCn1c(=O)ccc2ccc(N(CCO)CCO)nc21")
"> 100 µM (inactive)"
>>> experimental_result("CCOC(=O)C1C(=O)CC(O)(OCC)C(C(=O)OCC)C1c1ccc(OC)cc1 (stereo unspecified)")
"> 100 µM (inactive)"
>>> experimental_result("[N-]=[N+]=NC1(Cc2ccccc2)C(=O)Nc2ccccc2C1=O (stereo unspecified)")
"> 100 µM (inactive)"
>>> experimental_result("O=C(Cn1c(C(=O)c2ccccc2)nc2ccccc21)c1ccccc1")
"> 100 µM (inactive)"
>>> experimental_result("Cn1nnc2c3c(N(CCO)CCO)ccnc3ccc21")
"19.1 µM (inactive)"
